Data origin, for the record: ChEMBL document CHEMBL1149838

Biological target: UniProt:P18031
Sequence (P18031 whole entry): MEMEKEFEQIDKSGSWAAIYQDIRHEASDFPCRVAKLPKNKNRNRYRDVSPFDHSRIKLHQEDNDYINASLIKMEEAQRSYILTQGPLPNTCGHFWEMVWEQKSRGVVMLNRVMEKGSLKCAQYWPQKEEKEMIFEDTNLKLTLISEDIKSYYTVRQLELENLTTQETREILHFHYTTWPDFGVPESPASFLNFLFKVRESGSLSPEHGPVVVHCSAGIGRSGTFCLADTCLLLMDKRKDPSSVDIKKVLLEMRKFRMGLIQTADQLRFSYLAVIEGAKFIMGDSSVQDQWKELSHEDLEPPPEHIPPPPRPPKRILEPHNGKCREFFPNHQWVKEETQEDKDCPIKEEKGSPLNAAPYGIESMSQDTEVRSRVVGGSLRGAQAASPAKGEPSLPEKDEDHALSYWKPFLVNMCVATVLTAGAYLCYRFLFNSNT
Test: Inhibition of human recombinant PTP1B
PROPERTY_LABEL: IC50 (µM)

CC(=O)c1c(O)c(C)c(O)c2c1OC1=CC(O)=C(/C(C)=N\[C@@H](CCC(=O)O)C(=O)O)C(=O)[C@@]12C : 23.2

A = COC(=O)CC[C@H](/N=C(\C)C1=C(O)C=C2Oc3c(C(C)=O)c(O)c(C)c(O)c3[C@@]2(C)C1=O)C(=O)O
B = CC(=O)c1c(O)c(C)c(O)c2c1OC1=CC(O)=C(/C(C)=N/[C@@H](CCC(=O)O)C(=O)O)C(=O)[C@@]12C
Query block: Choose between A and B : whose measured IC50 value is numerically larger? Selection: enter the item's label.
Result block: B
(B: 27.7 µM, A: 15 µM)
